Just for reference, patent US9017689B2 is where these values come from.

Experiment: Solubility screening in trehalose matrices pH 2.65 to 7.03;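 note: test items are peptides, each checked for solubility in every trehalose matrix, the matrices made up in distilled deionised water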
Type: physicochemical
Settings: aqueous buffer; 10 mM sodium citrate and 260 mM trehalose dihydrate, pH 3.99; read-out: Solubility [mg per ml]
Ends that are not written are not given here.
readout_name: solubility

Known solubility results, listed for orientation:
PAARMFKAFILEGDKLVPK [Bir02J] = ≥ 315 µg/mL
AERERIFKRFDANGEGK [Bir16A] = ≥ 6490 µg/mL
KEMGETLLRAVESYLLAHS [Bir09B] = ≥ 9920 µg/mL
FNYETETTSVIPAARK [BIR1I] = ≥ 1970 µg/mL
ETLLRAVESYLLAHSDAY [Bir09] = ≥ 303 µg/mL
AKYMVIQGEPGRVIRGK [Bir12B] = ≥ 8630 µg/mL

Inquiry: // query solubility value for entry SNEIKIVATPEGGSILK [Bir07C]
Reply text: ≥ 330 µg/mL

Inquiry: Request: PGTIKKISFPEGFPFKYV [Bir04]
Reply text: ≥ 17600 µg/mL
